# Test system: MCF-10A
# protocol.text: MTT cytotoxicity assay, noncancerous MCF-10A
# Assay type: cell-based
# condition.description: Homo sapiens, 72 h, read-out: IC50 values MCF-10A
# maps each entry to its IC50
test.readout: IC50 (µM)

>  <molecule>
Nc1nc(=O)[nH]c2c1C(c1cccs1)C1=C(CCCC1=O)O2 (centres unmarked)

>  <test.value>
60.1

$$$$
>  <molecule>
NC(=S)Cc1nc(N)c2c(n1)OC1=C(C(=O)CCC1)C2c1cccs1 (centres unmarked)

>  <test.value>
51.6

$$$$
>  <molecule>
Nc1nc(=S)[nH]c2c1C(c1cccs1)C1=C(CCCC1=O)O2 (centres unmarked)

>  <test.value>
58.1

$$$$
>  <molecule>
Nc1c2c(nc(=S)n1-c1ccccc1)OC1=C(C(=O)CCC1)C2c1cccs1 (centres unmarked)

>  <test.value>
78.5

$$$$
>  <molecule>
O=C1CCCC2=C1C(c1cccs1)C1=C(NC(=O)N3CCN=C13)O2 (centres unmarked)

>  <test.value>
52.3

$$$$
>  <molecule>
N=c1c2c(ncn1N)OC1=C(C(=O)CCC1)C2c1cccs1 (centres unmarked)

>  <test.value>
77.3

$$$$
>  <molecule>
COc1cccc2c1C(=O)c1c(O)c3c(c(O)c1C2=O)C[C@@](O)(C(=O)CO)C[C@@H]3O[C@H]1C[C@H](N)[C@H](O)[C@H](C)O1 [doxorubicin, reference compound]

>  <test.value>
87.3

$$$$
>  <molecule>
N=c1c2c(nc(-c3ccccc3)n1N)OC1=C(C(=O)CCC1)C2c1cccs1 (centres unmarked)

>  <test.value>
60.5

$$$$
